Source listed as the supplement of paper PMC9694430.

Parameter: thermal shift delta Tm. Scope: all listed entries.
Tested on: LOC_OS01G13800-cb001
Assay: thermal shift delta Tm vs DMSO control; higher = stronger stabilization (binding);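 further: purified Escherichia coli-expressed rice kinase domain construct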
Conditions: 12.5 µM; protein concentration 2 µM

{"compound": "CCn1c2ccccc2c2cc(Nc3ccnc(NCCCN4CCOCC4)n3)ccc21", "unit-info": "°C", "thermal shift delta Tm": -0.29}
{"compound": "O=C(Nc1ccccc1C(=O)NC1CCCCNC1=O)c1cc2ccccc2s1 (stereo not drawn)", "unit-info": "°C", "thermal shift delta Tm": 0.44}
{"compound": "COc1cc(-c2cc(-c3ccc(N4CCNCC4)cc3)cnc2C)cc(OC)c1OC", "unit-info": "°C", "thermal shift delta Tm": -0.6}
{"compound": "NC(=O)c1ncn([C@@H]2O[C@H](CO)[C@@H](O)[C@H]2O)c1N", "unit-info": "°C", "thermal shift delta Tm": 0.52}
{"compound": "NC(=O)c1ccc(N(C(N)=O)c2c(F)cccc2F)nc1-c1ccc(F)cc1F", "unit-info": "°C", "thermal shift delta Tm": -0.47}
{"compound": "COC(=O)c1ccc2c(c1)NC(=O)/C2=C(\\Nc1ccc(N(C)C(=O)CN2CCN(C)CC2)cc1)c1ccccc1", "unit-info": "°C", "thermal shift delta Tm": -0.11}
{"compound": "CC(C)c1cnn2c(NCc3ccccc3)cc(NCCCCCCN)nc12", "unit-info": "°C", "thermal shift delta Tm": -0.23}
{"compound": "Cc1cc(C(=O)Nc2nc3cccc(Cl)c3n2[C@@H]2CCCCN(C(=O)/C=C/CN(C)C)C2)ccn1 [Nazartinib (EGF816, NVS-816)]", "unit-info": "°C", "thermal shift delta Tm": 0.82}
{"compound": "COc1cc2ccc(=O)oc2cc1O", "unit-info": "°C", "thermal shift delta Tm": -0.08}
{"compound": "C[C@@H](Nc1cc(F)cc(F)c1)c1cc(C(=O)N(C)C)cc2c(=O)cc(N3CCOCC3)oc12", "unit-info": "°C", "thermal shift delta Tm": 0.04}
{"compound": "Cc1ccc([N+](=O)[O-])cc1S(=O)(=O)N(C)/N=C/c1cnc2ccc(Br)cn12", "unit-info": "°C", "thermal shift delta Tm": 0.52}
{"compound": "CCn1c(-c2nonc2N)nc2c(C#CC(C)(C)O)ncc(OC[C@H]3CCCNC3)c21", "unit-info": "°C", "thermal shift delta Tm": 0.37}
{"compound": "C[C@@H](N)[C@H]1CC[C@H](C(=O)Nc2ccncc2)CC1", "unit-info": "°C", "thermal shift delta Tm": 0.65}
{"compound": "COc1ccccc1-c1cc(Nc2cccc(CS(N)(=O)=O)c2)ncn1", "unit-info": "°C", "thermal shift delta Tm": 0.56}
{"compound": "NC1(c2ccc(-c3nc4ccn5c(=O)[nH]nc5c4cc3-c3ccccc3)cc2)CCC1", "unit-info": "°C", "thermal shift delta Tm": 0.23}
{"compound": "CC(C)(CO)n1cc(C(=O)c2cncc(NC(=O)Cc3ccc(Cl)cn3)c2)c2cnc(N)nc21", "unit-info": "°C", "thermal shift delta Tm": 0.55}
{"compound": "Nc1nc2cc(-c3ccc4ncc(C(=O)N5CCOCC5)n4c3)ccc2o1", "unit-info": "°C", "thermal shift delta Tm": 0.43}
{"compound": "CN1CCN(c2ccc3nc(-c4c(N)c5c(F)cccc5[nH]c4=O)[nH]c3c2)CC1 [Dovitinib (TKI-258) Dilactic Acid]", "unit-info": "°C", "thermal shift delta Tm": -0.49}

###

Tested on: LOC_OS07G07230-cb001
Assay: thermal shift delta Tm vs DMSO control; higher = stronger stabilization (binding)
Details: 12.5 µM; protein concentration 2 µM
Where a name gives a salt, the structure may show the parent alone.
Overview of reported thermal shift delta Tm across a group of compounds:

{"compound": "COc1cc(Nc2c(C#N)cnc3cc(OCCCN4CCN(C)CC4)c(OC)cc23)c(Cl)cc1Cl [Bosutinib (SKI-606)]", "unit-info": "°C", "thermal shift delta Tm": 0.26}
{"compound": "NC1(Cc2ccc(Cl)cc2)CCN(c2ncnc3[nH]ccc23)CC1", "unit-info": "°C", "thermal shift delta Tm": -0.27}
{"compound": "CS(=O)(=O)N1CCN(Cc2cc3nc(-c4cccc5[nH]ncc45)nc(N4CCOCC4)c3s2)CC1", "unit-info": "°C", "thermal shift delta Tm": 0.23}
{"compound": "O=C(Nc1cccc(Nc2ncc(Br)c(NCCc3cnc[nH]3)n2)c1)N1CCCC1", "unit-info": "°C", "thermal shift delta Tm": 1.02}
{"compound": "Cc1ccc(NC(=O)c2ccc(CN3CCN(C)CC3)cc2)cc1Nc1nccc(-c2cccnc2)n1 [Imatinib Mesylate (STI571)]", "unit-info": "°C", "thermal shift delta Tm": 0.85}
{"compound": "CCN(CC)CCCC(C)Nc1nc(C)cc(Nc2ccc3nc(C)cc(N)c3c2)n1 (stereo not drawn)", "unit-info": "°C", "thermal shift delta Tm": 0.49}
{"compound": "CC(C)Nc1cc(-c2c[nH]c(C(=O)N[C@H](CO)c3cccc(Cl)c3)c2)c(Cl)cn1", "unit-info": "°C", "thermal shift delta Tm": -0.16}
{"compound": "CNc1nc(Nc2cnn([C@H]3CCN(C4COC4)C[C@@H]3F)c2Cl)ncc1C(F)(F)F", "unit-info": "°C", "thermal shift delta Tm": 0.28}

###

Test system: LOC_OS05G28520-cb001
Experiment: thermal shift delta Tm vs DMSO control; higher = stronger stabilization (binding)
Settings: 12.5 µM; protein concentration 2 µM

{"compound": "COc1cc2ncnc(Nc3ccc(O)c(Br)c3)c2cc1OC", "unit-info": "°C", "thermal shift delta Tm": 0.86}
{"compound": "CN1CCN(c2cccc(Nc3nc4c(-c5ccc(S(C)(=O)=O)cc5)cccn4n3)c2)CC1", "unit-info": "°C", "thermal shift delta Tm": 0.11}
{"compound": "O=C(Nc1cccc(Nc2ncc(Br)c(NCCc3cnc[nH]3)n2)c1)N1CCCC1", "unit-info": "°C", "thermal shift delta Tm": -0.09}
{"compound": "COc1cc2/c(=N/c3ccc(Br)cc3F)nc[nH]c2cc1OCC1CCN(C)CC1 [Vandetanib (ZD6474)]", "unit-info": "°C", "thermal shift delta Tm": 0.62}
{"compound": "COC(=O)N[C@@H](C)CNc1nccc(-c2cn(C(C)C)nc2-c2cc(Cl)cc(NS(C)(=O)=O)c2F)n1", "unit-info": "°C", "thermal shift delta Tm": 0.85}
{"compound": "Cc1cnc(NC(=O)Nc2cc(Br)c(C)cc2OC[C@@H]2CNCCO2)cn1", "unit-info": "°C", "thermal shift delta Tm": 0.03}
{"compound": "Cc1cc(Nc2ncc(Cl)c(Nc3ccccc3S(=O)(=O)C(C)C)n2)c(OC(C)C)cc1C1CCNCC1", "unit-info": "°C", "thermal shift delta Tm": 0.31}
{"compound": "Cc1cc(Nc2cc(CN3CCOCC3)c3nc(C)c(Cc4ccc(Cl)cc4F)n3n2)n[nH]1", "unit-info": "°C", "thermal shift delta Tm": 1.47}

###

Each record here notes measured thermal shift delta Tm.
System: LOC_OS01G21960-cb002
Test: thermal shift delta Tm vs DMSO control; higher = stronger stabilization (binding)
Details: 12.5 µM; protein concentration 2 µM

{"query-smiles": "Nc1nc(Nc2ccc(S(N)(=O)=O)cc2)nn1C(=O)c1c(F)cccc1F", "thermal shift delta Tm [°C]": 1.73}
{"query-smiles": "CCn1nc(C2CCN(C(=O)CCO)CC2)nc1-c1cnc(N)c(-c2nnc(C(C)(C)C)o2)n1", "thermal shift delta Tm [°C]": 1.09}
{"query-smiles": "O=C1Nc2ccc(I)cc2/C1=C/c1cc(Br)c(O)c(Br)c1", "thermal shift delta Tm [°C]": 5.54}
{"query-smiles": "COc1cc2ncnc(Nc3ccc(Cl)cc3F)c2cc1OC", "thermal shift delta Tm [°C]": 0.85}
{"query-smiles": "C=CC(=O)Nc1cccc(Nc2nc(Nc3ccc(Oc4ccnc(C(=O)NC)c4)cc3)ncc2F)c1", "thermal shift delta Tm [°C]": 2.14}
{"query-smiles": "CCc1ccc(/C=C2/SC(=S)NC2=O)cc1", "thermal shift delta Tm [°C]": 1.74}

###

Tested on: LOC_OS03G50810-cb003
Assay: thermal shift delta Tm vs DMSO control; higher = stronger stabilization (binding)
Settings: 12.5 µM; protein concentration 2 µM
Listing of recorded thermal shift delta Tm by entry.
reported-property: thermal shift delta Tm

{"compound": "CO[C@H]1CC[C@H](N2C(=O)CNc3ncc(-c4ccc(C(C)(C)O)nc4)nc32)CC1", "reported-property": "thermal shift delta Tm", "obs-value": "0.18 °C"}
{"compound": "O=C(Nc1nc2cccc(-c3ccc(CN4CCS(=O)(=O)CC4)cc3)n2n1)C1CC1", "reported-property": "thermal shift delta Tm", "obs-value": "0.86 °C"}
{"compound": "O=C(NC(NC(=S)Nc1ccc(F)c([N+](=O)[O-])c1)C(Cl)(Cl)Cl)C(c1ccccc1)c1ccccc1 (centres undefined)", "reported-property": "thermal shift delta Tm", "obs-value": "1.45 °C"}
{"compound": "CC#CC(=O)N1CCC[C@H]1c1nc(-c2ccc(C(=O)Nc3ccccn3)cc2)c2c(N)nccn12", "reported-property": "thermal shift delta Tm", "obs-value": "0.38 °C"}
{"compound": "O=C1Nc2ccc(CN3C(=O)CSC3=O)cc2/C1=C/c1cc(CN2CCOCC2)c[nH]1", "reported-property": "thermal shift delta Tm", "obs-value": "2 °C"}
{"compound": "O=C1NC(=O)/C(=C/c2ccc(-c3ccc(F)cc3O)o2)S1", "reported-property": "thermal shift delta Tm", "obs-value": "2.55 °C"}
{"compound": "O=C(NOCC1CC1)c1ccc(F)c(F)c1Nc1ccc(I)cc1Cl", "reported-property": "thermal shift delta Tm", "obs-value": "0.83 °C"}
{"compound": "COc1cc(-c2cc(-c3ccc(N4CCNCC4)cc3)cnc2C)cc(OC)c1OC", "reported-property": "thermal shift delta Tm", "obs-value": "0.51 °C"}
{"compound": "CS(=O)(=O)c1cccc(CNc2nc(Nc3ccc4c(c3)CCC(=O)N4)ncc2C(F)(F)F)c1", "reported-property": "thermal shift delta Tm", "obs-value": "4.21 °C"}
